Where do these numbers come from? They come from paper PMC12416549.

# measured on: T1, TNFR1 (Homo sapiens, UniProt P19438)
# T1 chain: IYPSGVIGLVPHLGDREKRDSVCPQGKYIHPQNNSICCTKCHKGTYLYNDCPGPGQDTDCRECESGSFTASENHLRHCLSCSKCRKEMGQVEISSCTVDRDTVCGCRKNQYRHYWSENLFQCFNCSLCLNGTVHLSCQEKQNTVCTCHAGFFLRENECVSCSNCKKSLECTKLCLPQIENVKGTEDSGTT
# protocol details: yeast display SC50
measurement kind: apparent Kd (screen) (nM)
Enter your answer as a number in nM; do not include the unit.

// field: apparent Kd (screen); key: K85P (designed binder) SMEEEVEKAAKEYEKKKKEAIEKHLEKLKAKDKEAAERFLKELEEAAKEYAKDEAKTMSEEEAKRRAKKYKEKVLLSELSEEEQPEIKEAEEKLVRTILKYVEEAAK ; value = 18.3

// field: apparent Kd (screen); key: E62Q (designed binder) SMEEEVEKAAKEYEKKKKEAIEKHLEKLKAKDKEAAERFLKELEEAAKEYAKDEAKTMSEEQAKRRAKKYKEKVLLSELSEEEQKEIKEAEEKLVRTILKYVEEAAK ; value = 0.79

// field: apparent Kd (screen); key: R66N (designed binder) SMEEEVEKAAKEYEKKKKEAIEKHLEKLKAKDKEAAERFLKELEEAAKEYAKDEAKTMSEEEAKRNAKKYKEKVLLSELSEEEQKEIKEAEEKLVRTILKYVEEAAK ; value = 16.7

// field: apparent Kd (screen); key: E61K (designed binder) SMEEEVEKAAKEYEKKKKEAIEKHLEKLKAKDKEAAERFLKELEEAAKEYAKDEAKTMSEKEAKRRAKKYKEKVLLSELSEEEQKEIKEAEEKLVRTILKYVEEAAK ; value = 1.69
